- Tested on: HCT-15 colon
- PROCEDURE_TEXT: NCI tumour cell line growth inhibition, 48 h
# TGI listing for each entry below
Please state the figure in µM; there is no need to write the unit.

Guide cases for TGI, answers given:
CCCCCCCCCCCCCCCCOCC(CC(F)(F)P(=O)(OCC)OCC)OC(C)=O (stereo not given)    20.2
CN(C)CCCNc1ccc([N+](=O)[O-])c2nc3ccccc3c(N)c12    1.7
COC1=CC(c2ccc[nH]2)=N/C1=C\c1[nH]c(C)c(C(=O)CCCCC(=O)NC(C)(C)C)c1C    2.06

Now consider a different molecule.
So, Clc1cc2c(cc1Cl)CC(NCCN1CCCC1)CC2 (stereo not given) ? Its TGI was 26.5

----------
Recorded TGI for the following compounds
- Test system: SNB-19 CNS
- PROCEDURE_TEXT: NCI tumour cell line growth inhibition, 48 h
State just the number; it will be interpreted in µM.

Solved cases below.
COc1cc2c3c(n(CCCCN)c(=O)c2cc1OC)-c1cc2c(cc1C3=O)OCO2    6.75
Nc1cccc(/C=C/C(=O)N2CCN(CCOC(c3ccccc3)c3ccccc3)CC2)c1    32.4

For the next question, use this compound.
// TGI lookup, compound = CN(C)CCCNc1ccc([N+](=O)[O-])c2nc3ccccc3c(N)c12 , result: 3.23

----------
Recorded TGI for the following compounds
- System: HOP-62 NSCLC
- PROCEDURE_TEXT: NCI tumour cell line growth inhibition, 48 h

CC1CN(c2ccc(Cl)cc2)CC(C)OC(=O)O1 (centres undefined)    > 100 µM

TGI reported for this compound Brc1cc(CCOC2CCCCO2)c(-c2sccc2CCOC2CCCCO2)s1 (centres undefined) : > 100 µM

For reference, reported TGI for C=CCC(N(C)C(=O)[C@H](Cc1ccccc1)NC(=O)OCc1ccccc1)P(=O)(Oc1ccccc1)Oc1ccccc1 (some centres undefined) stands at > 100 µM

For this compound ( O=C(NC(=O)c1cn(CCN(CCO)C(=O)NCCCCCCNC(=O)N(CCO)CCn2cc(C(=O)NC(=O)OCc3ccccc3)c(=O)[nH]c2=O)c(=O)[nH]c1=O)OCc1ccccc1 ), measured TGI is > 100 µM

Reported TGI ( CCOC(=O)c1nc2ccccc2nc1NCc1cc(OC)c(OC)c(OC)c1 ) = > 100 µM

Field TGI (entry CN(C)CCN(C)c1ccc2c(=O)n(CCN(C)C)c(=O)n3c4ccccc4c(=O)c1c23 ) reads 1.47 µM

For this compound ( C=CCC1(O)c2ccccc2C(=O)c2c(NCCN(CC(=O)OCC)CC(=O)OCC)cccc21 (centres undefined) ), measured TGI is > 100 µM

Just so you know, measured TGI for NC(=O)c1ccccc1Nc1ccc2nnc(-c3ccncc3)n2n1 came out at 22.4 µM

Lab note: measured TGI of CCOC(=O)c1c2c(n(Cc3ccc(Cl)cc3Cl)c1C)-c1nc[nH]c1C(=O)C2=O was 32.6 µM

Query O=C(O)C1OC1(c1cccc(Cl)c1)c1ccccc1Cl (centres undefined) yields TGI of 61.3 µM

In plain terms, CC(=O)Oc1ccc(-c2cc3ccccc3oc2=O)cc1 has a documented TGI of > 100 µM

According to the records, this compound CC1=NN(c2cccc(Cl)c2)C2(SCC(=O)N2c2nc3ccccc3s2)/C1=C\c1cccs1 (centres undefined) displays TGI of > 100 µM

# TGI (compound: O=C1C2C3C=C4c5ccccc5N(c5ccccc5)C4(C2C(=O)N1c1ccc(Cl)cc1)[C@H]1C(=O)N(c2ccc(Cl)cc2)C(=O)[C@@H]31 (some centres undefined) ) is > 100 µM

----------
Each entry below lists one item and its recorded TGI value.
- Test system: CAKI-1 renal
- PROCEDURE_TEXT: NCI tumour cell line growth inhibition, 48 h

Reference set (4 entries):
S=C1N(/N=C/c2c3ccccc3cc3ccccc23)C(=Nc2ccccc2)C(=Nc2ccccc2)N1c1ccccc1    > 100 µM
COC(=O)CNS(=O)(=O)c1ccc(-c2c3nc(c(-c4ccc(S(=O)(=O)NCC(=O)OC)cc4)c4ccc([nH]4)c(-c4ccc(S(=O)(=O)NCC(=O)OC)cc4)c4nc(c(-c5ccc(S(=O)(=O)NCC(=O)OC)cc5)c5ccc2[nH]5)C=C4)C=C3)cc1    > 100 µM
O=C(Nc1cccc(-n2cc(-c3ccncc3)c(-c3ccc(Cl)c(O)c3)n2)c1)c1ccc(N2CCOCC2)c(C(F)(F)F)c1    24.6 µM
C(=N\NC1=NCCN1)/c1ccc(-c2cn3cc(/C=N/NC4=NCCN4)ccc3n2)cc1    49.4 µM

TGI recorded for this molecule, CCOC(=O)C(NC(=O)c1ccco1)(Nc1nc2ccc(OCC)cc2s1)C(F)(F)F (stereo not drawn) , is 45.8 µM

Documented TGI of NC(=O)c1cc2ccc(O)cc2oc1=Nc1ccccc1 : > 100 µM

----------
- Tested on: BT-549 breast
- PROCEDURE_TEXT: NCI tumour cell line growth inhibition, 48 h; in the data active = GI50 below about 0.43 µM; inactive = the rest
Mark one answer only. Choices: active, inactive

Example entries and their recorded answers appear below.
C[C@]12CCc3sc(NCCc4ccccc4)nc3C1=CC[C@@H]1[C@@H]2CC[C@]2(C)C(=O)CC[C@@H]12    inactive
COc1ccc(-c2nc(/C=N/Nc3cc(C)nc4ccc(Cl)cc34)c(C)o2)cc1    inactive
Cc1ccc(C(CC(=O)c2ccccc2)C2C(=O)NC(=O)NC2=O)cc1 (stereo not given)    inactive
CC1OC(n2c3ccccc3c3c4c(c5c6ccccc6[nH]c5c32)C(=O)N(CCN[C@@H]2CCC[C@H]2N)C4=O)CC(O)C1O (stereo not given in full)    inactive

Okay, next one:
Exercise: Which outcome was assigned to Cc1cc(Cl)ccc1Nc1nc(C(F)(F)F)ccc1C(=O)N/N=C/c1ccc(Cl)cc1 in this test?
Key: inactive

----------
- Test system: UACC-257 melanoma
- PROCEDURE_TEXT: NCI tumour cell line growth inhibition, 48 h
Items are presented alongside their recorded TGI.

Some solved entries appear below for comparison.
CN(C)C(=S)/N=c1\ssc(=S)n1Cc1ccccc1    > 56.2 µM
CCOC(=O)c1nc2ccccc2nc1NCc1cc(OC)c(OC)c(OC)c1    > 100 µM
CCOC(=O)c1cc2c(n1Cc1cccc(OC)c1)-c1oncc1CCC2    > 100 µM
COC(=O)[C@@]12OC[C@]34[C@H]([C@@H](O)[C@@H]1O)[C@@]1(C)[C@H](O)C(=O)C=C(C)[C@@H]1C[C@H]3OC(=O)C(OC(C)=O)[C@@H]24 (some centres undefined)    0.428 µM
CC1OC(OC2C[C@](O)(C(=O)CF)Cc3c(O)c4c(c(O)c32)C(=O)c2ccccc2C4=O)CC(N)C1O (some centres undefined)    1.21 µM

For Clc1ccc(N=Nc2nc3ccccc3nc2N=Nc2ccc(Cl)cc2Cl)c(Cl)c1 on UACC-257 melanoma, measured TGI was > 100 µM

Lab note: compound CCCCCCCCCCCCCCCCOCC(CC(F)(F)P(=O)(OCC)OCC)OC(C)=O (centres undefined) tested on UACC-257 melanoma; recorded TGI was 33 µM

Entry N#C/C(c1nc2ccccc2[nH]1)=c1\s/c(=C/c2ccc(Cl)cc2)c(=O)n1-c1ccccc1 : TGI on UACC-257 melanoma = > 100 µM

----------
- Tested on: SK-MEL-2 melanoma
- PROCEDURE_TEXT: NCI tumour cell line growth inhibition, 48 h
Reported GI50 is given for each of the following compounds.

Just so you know, measured GI50 for O=C(Cn1c(=O)c(-c2ccccc2)nc2ccccc21)Nc1ccc(F)cc1 came out at 60.6 µM

Value of measured GI50 for the entry COc1cccc(-n2nc(C)c3c(N/N=C(\C)c4ccncc4)ncnc32)c1 : > 25 µM

// field: GI50; key: Cc1cc(O)c(C2=NN(c3ccc(S(N)(=O)=O)cc3)C(c3ccccc3Cl)C2)cc1Cl (stereo not given) ; value = 11.9 µM

The recorded GI50 for CC1(N)CCN(c2cccnc2NC(=O)c2nc(-c3ncccc3C(F)(F)F)cnc2N)CC1 is 50.9 µM

// sample COc1ccc(-c2nc(-c3ccccc3)c(-c3ccccc3)[nH]2)cc1OC1CCCC1 , its GI50 was > 100 µM

----------
- System: SF-539 CNS
- PROCEDURE_TEXT: NCI tumour cell line growth inhibition, 48 h
MEASURED_ATTRIBUTE: TGI (µM)
Write down the numeric answer in µM and omit the unit.

CC(=O)C1=C(C)N(c2ccc(C)cc2)C2(O)C=CC(=O)C3C(=O)N(c4ccccc4)C(=O)C132 (stereo not given)    65.2

Alright, here's another compound for you.
CCOC(=O)c1cn2c(n1)sc1c(Cl)c(Cl)ccc12 on SF-539 CNS gives TGI = 21.4

----------
- System: HCT-116 colon
- PROCEDURE_TEXT: NCI tumour cell line growth inhibition, 48 h; in the data active means GI50 below about 0.43 µM; inactive means the rest
Please reply with one of these outcomes: active, inactive

Cc1cc(C(=C2C=CC(=Nc3ccccc3)C=C2)c2ccc(Nc3ccccc3)cc2)ccc1N    active
O=C1c2cccc(NCCN=Cc3cc([N+](=O)[O-])ccc3O)c2C(=O)c2c(NCCN=Cc3cc([N+](=O)[O-])ccc3O)cccc21    inactive

Exercise: Please state the recorded outcome for this compound: Cc1ccc(C(CC(=O)c2ccccc2)C2C(=O)NC(=O)NC2=O)cc1 (centres undefined)
Key: inactive

Exercise: Name the outcome recorded for CC(=O)OC[C@]12CC[C@@H](C(=O)CBr)[C@@H]1[C@H]1CC[C@@H]3[C@@]4(C)CCCNC(C)(C)[C@@H]4CC[C@@]3(C)[C@]1(C)CC2 in the assay.
Key: inactive
